- assay.summary: Stability of cannabinoid compounds and Vitamin E components in Beverage 2 (AB Red) by LCMSMS
- Type: physicochemical
- experimental.context: stored at 21-25° C., 5 days
test.readout: Stability of Plant-Derived Cannabinoid Compounds in AB Red (µg/mL)
Write it as a number; the unit µg/mL goes unstated.

[[record]]
compound = "CCCCCc1cc(O)c2c(c1)OC(C)(C)[C@@H]1CCC(C)=C[C@@H]21 [D9 THC, delta-9-tetrahydrocannabinol, reference compound]"
unit_info = "µg/mL"
observed = 12.4

[[record]]
compound = "CCCCCc1cc(O)c2c(c1)OC1(C)CCC3C1C2C3(C)C (stereo not shown)"
unit_info = "µg/mL"
observed = 0.51

[[record]]
compound = "CCCCCc1cc(O)c(C/C=C(\\C)CCC=C(C)C)c(O)c1"
unit_info = "µg/mL"
observed = 4.66


// Stability of Plant-Derived Cannabinoid Compounds in AB Red lookup, compound = CCCCCc1cc(O)c2c(c1)OC(C)(CCC=C(C)C)C=C2 (stereo not shown) , result: 0.28

* * *

Quick reference for Stability of Plant-Derived Cannabinoid Compounds in AB Red among some compounds
- assay.summary: Stability of cannabinoid compounds and Vitamin E components in Beverage 2 (AB Red) by LCMSMS
- Type: physicochemical
- experimental.context: stored at 21-25° C., 29 days
Provide the reading as a plain figure in µg/mL.

[[record]]
compound = "CCCCCc1cc(O)c(C/C=C(\\C)CCC=C(C)C)c(O)c1 [CBG, cannabigerol]"
unit_info = "µg/mL"
observed = 4.78

[[record]]
compound = "CCCCCc1cc(O)c2c(c1)OC(C)(CCC=C(C)C)C=C2 (stereo not drawn) [CBC, cannabichromene]"
unit_info = "µg/mL"
observed = 0.29

[[record]]
compound = "C=C(C)[C@@H]1CCC(C)=C[C@H]1c1c(O)cc(CCC)cc1O [CBDV, cannabidivarin]"
unit_info = "µg/mL"
observed = 0.19

[[record]]
compound = "CCCCCc1cc(O)c2c(c1)OC(C)(C)c1ccc(C)cc1-2 [CBN, cannabinol]"
unit_info = "µg/mL"
observed = 2.78


Lab note: CCCCCc1cc(O)c2c(c1)OC1(C)CCC3C1C2C3(C)C (stereo not drawn) [CBL, cannabicyclol] gave Stability of Plant-Derived Cannabinoid Compounds in AB Red of 0.49

Memo: CCCCCc1cc2c(c(O)c1C(=O)O)[C@@H]1C=C(C)CC[C@H]1C(C)(C)O2 [D9 THCA, delta-9-tetrahydrocannabinolic acid] , reported Stability of Plant-Derived Cannabinoid Compounds in AB Red: 1.33

response.value for CCCc1cc(O)c2c(c1)OC(C)(C)[C@@H]1CCC(C)=C[C@@H]21 [THCV, delta-9-tetrahydrocannabivarin] (field: Stability of Plant-Derived Cannabinoid Compounds in AB Red) = 3.15

Entry under test: CCCCCc1cc(O)c2c(c1)OC(C)(C)[C@@H]1CCC(C)=C[C@@H]21 [D9 THC, delta-9-tetrahydrocannabinol, reference compound] . Its Stability of Plant-Derived Cannabinoid Compounds in AB Red was 12.7

What the record says about C=C(C)[C@@H]1CCC(C)=C[C@H]1c1c(O)cc(CCCCC)c(C(=O)O)c1O [CBDA, cannabidiolic acid] : Stability of Plant-Derived Cannabinoid Compounds in AB Red is 1.62

* * *

- assay.summary: Stability of cannabinoid compounds and Vitamin E components in Beverage 1 (AB White) by LCMSMS
- Assay type: physicochemical
- experimental.context: AB White stored at 21-25° C.; 25 days
Label scheme for Stability of Plant-Derived Cannabinoid Compounds in AB White, 21-25° C.: lower than 2 µg/mL is class 0, 2 µg/mL and above is class 1.

Solved cases (3 shown):
[[record]]
compound = "CCCc1cc(O)c2c(c1)OC(C)(C)[C@@H]1CCC(C)=C[C@@H]21 [THCV, delta-9-tetrahydrocannabivarin]"
class_assignment = "class 1"

[[record]]
compound = "CCCCCc1cc(O)c2c(c1)OC(C)(C)[C@@H]1CCC(C)=C[C@@H]21 [D9 THC, delta-9-tetrahydrocannabinol, reference compound]"
class_assignment = "class 1"

[[record]]
compound = "CCCCCc1cc(O)c2c(c1)OC1(C)CCC3C1C2C3(C)C (stereo not drawn) [CBL, cannabicyclol]"
class_assignment = "class 0"


Task: Can C=C(C)[C@@H]1CCC(C)=C[C@H]1c1c(O)cc(CCCCC)c(C(=O)O)c1O [CBDA, cannabidiolic acid] be said to have Stability of Plant-Derived Cannabinoid Compounds in AB White, 21-25° C. at or above 2 µg/mL?
Result: class 0

Task: Does the compound CCCCCc1cc(O)c2c(c1)OC(C)(CCC=C(C)C)C=C2 (stereo not drawn) [CBC, cannabichromene] have recorded Stability of Plant-Derived Cannabinoid Compounds in AB White, 21-25° C. that is 2 µg/mL or more?
Result: class 0

Task: Does C=C(C)[C@@H]1CCC(C)=C[C@H]1c1c(O)cc(CCC)cc1O [CBDV, cannabidivarin] have a reported Stability of Plant-Derived Cannabinoid Compounds in AB White, 21-25° C. of at least 2 µg/mL?
Result: class 0

Task: Please indicate if the recorded Stability of Plant-Derived Cannabinoid Compounds in AB White, 21-25° C. for CCCCCc1cc(O)c(C/C=C(\C)CCC=C(C)C)c(O)c1 [CBG, cannabigerol] meets or exceeds 2 µg/mL.
Result: class 1

Task: Hi, just wondering whether CCCCCc1cc2c(c(O)c1C(=O)O)[C@@H]1C=C(C)CC[C@H]1C(C)(C)O2 [D9 THCA, delta-9-tetrahydrocannabinolic acid] shows Stability of Plant-Derived Cannabinoid Compounds in AB White, 21-25° C. of 2 µg/mL or higher.
Result: class 0

Task: Say whether CCCCCc1cc(O)c2c(c1)OC(C)(C)c1ccc(C)cc1-2 [CBN, cannabinol] shows Stability of Plant-Derived Cannabinoid Compounds in AB White, 21-25° C. of 2 µg/mL or more.
Result: class 1

* * *

- assay.summary: Stability of cannabinoid compounds and Vitamin E components in Beverage 1 (AB White) by LCMSMS
- Format: physicochemical
- experimental.context: AB White stored at 8° C.; 29 days
Stability of Plant-Derived Cannabinoid Compounds in AB White, 8° C. below 4 µg/mL gives FALSE; Stability of Plant-Derived Cannabinoid Compounds in AB White, 8° C. at or above it gives TRUE.

Take a look at these entries with their results.
[[record]]
molecule = "C=C(C)[C@@H]1CCC(C)=C[C@H]1c1c(O)cc(CCCCC)c(C(=O)O)c1O"
class_assignment = "FALSE"

[[record]]
molecule = "CCCCCc1cc(O)c(C/C=C(\\C)CCC=C(C)C)c(O)c1"
class_assignment = "TRUE"

[[record]]
molecule = "CCCCCc1cc(O)c2c(c1)OC1(C)CCC3C1C2C3(C)C (stereo not shown)"
class_assignment = "FALSE"

[[record]]
molecule = "CCCCCc1cc(O)c2c(c1)OC(C)(C)[C@@H]1CCC(C)=C[C@@H]21 [D9 THC, delta-9-tetrahydrocannabinol, reference compound]"
class_assignment = "TRUE"

[[record]]
molecule = "CCCCCc1cc(O)c2c(c1)OC(C)(C)c1ccc(C)cc1-2"
class_assignment = "FALSE"


Now, please, on to the next molecule.
Task: Record CCCCCc1cc(O)c2c(c1)OC(C)(CCC=C(C)C)C=C2 (stereo not shown) ; criterion: Stability of Plant-Derived Cannabinoid Compounds in AB White, 8° C. no lower than 4 µg/mL. Met?
Result: FALSE

* * *

- assay.summary: Stability of cannabinoid compounds and Vitamin E components in Beverage 1 (AB White) by LCMSMS
- Format: physicochemical
- experimental.context: AB White stored at 21-25° C.; 570 days
Cut-off 0.9 µg/mL on Stability of Plant-Derived Cannabinoid Compounds in AB White, 21-25° C.: below means Criterion met, at or above means Criterion not met.

Task: Item CCCCCc1cc(O)c2c(c1)OC(C)(CCC=C(C)C)C=C2 (stereo not drawn) : Stability of Plant-Derived Cannabinoid Compounds in AB White, 21-25° C. beneath 0.9 µg/mL, strictly?
Result: Criterion met

Task: # check: Stability of Plant-Derived Cannabinoid Compounds in AB White, 21-25° C. < 0.9 µg/mL for CCCCCc1cc(O)c2c(c1)OC(C)(C)c1ccc(C)cc1-2
Result: Criterion not met

Task: Please let me know if C=C(C)[C@@H]1CCC(C)=C[C@H]1c1c(O)cc(CCCCC)c(C(=O)O)c1O shows Stability of Plant-Derived Cannabinoid Compounds in AB White, 21-25° C. below 0.9 µg/mL.
Result: Criterion not met

Task: Say whether its Stability of Plant-Derived Cannabinoid Compounds in AB White, 21-25° C. is strictly beneath 0.9 µg/mL. Entry: CCCc1cc(O)c2c(c1)OC(C)(C)[C@@H]1CCC(C)=C[C@@H]21 [THCV, delta-9-tetrahydrocannabivarin]
Result: Criterion not met

Task: Is Stability of Plant-Derived Cannabinoid Compounds in AB White, 21-25° C. strictly under 0.9 µg/mL for the entry CCCCCc1cc(O)c(C/C=C(\C)CCC=C(C)C)c(O)c1 ?
Result: Criterion not met
